FYI, the data here is from the Human Domainome abundance scans (Beltran et al. 2025).

B1: Membrane-associated guanylate kinase, WW and PDZ domain-containing protein 2, residues 601 to 682; numbered along this chain, Q86UL8 (parent)
chain: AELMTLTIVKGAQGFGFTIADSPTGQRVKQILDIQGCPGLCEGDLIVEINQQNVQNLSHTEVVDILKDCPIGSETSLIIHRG

Variants of: B1
measurementNotes: abundance fitness (aPCA) (normalised: wild type 0, dead -1); higher = more abundant; growth selection in yeast, the domain comes from the species named
conditionsUsed: Homo sapiens
valueType: abundance fitness

variantspec=T18G valuereported=-0.068
variantspec=E48H valuereported=0.091
variantspec=E61D valuereported=-0.005
variantspec=P70E valuereported=0.007
variantspec=P23D valuereported=-0.129
variantspec=E48C valuereported=-0.145
variantspec=L45G valuereported=-0.096
variantspec=V63A valuereported=0.001
variantspec=A20S valuereported=0.003
variantspec=V28N valuereported=-0.564
variantspec=I19P valuereported=-0.023
variantspec=I49Y valuereported=-0.14
variantspec=Q30K valuereported=0.363
variantspec=V62M valuereported=-0.181
variantspec=V62L valuereported=-0.114
variantspec=S73L valuereported=-0.102
variantspec=T24W valuereported=-0.076
variantspec=S73R valuereported=-0.132
variantspec=T24N valuereported=-0.004
variantspec=I34W valuereported=-0.101
variantspec=G25R valuereported=-0.356
variantspec=G82F valuereported=-0.25
variantspec=I19T valuereported=-0.169
variantspec=V63G valuereported=-0.067
variantspec=T24M valuereported=-0.031
variantspec=I78G valuereported=-0.075
variantspec=G43R valuereported=-0.182
variantspec=N50T valuereported=-0.455
variantspec=G36L valuereported=-0.261
variantspec=G36S valuereported=-0.158
variantspec=G72Q valuereported=0.003
variantspec=N53T valuereported=-0.042
variantspec=D68W valuereported=-0.166
variantspec=N50L valuereported=-0.219
variantspec=D64C valuereported=-0.238
variantspec=P23I valuereported=-0.17
variantspec=V47F valuereported=0.185
variantspec=V62T valuereported=-0.03
variantspec=N53R valuereported=-0.061
variantspec=L40G valuereported=-0.752
variantspec=Q52H valuereported=-0.029
variantspec=G25W valuereported=-0.531
variantspec=I34P valuereported=-0.072
variantspec=I71M valuereported=-0.004
variantspec=I46T valuereported=-0.587
variantspec=F17L valuereported=-0.124
variantspec=Q55M valuereported=-0.01
variantspec=V54R valuereported=-0.939
variantspec=Q51E valuereported=-0.013
variantspec=H59N valuereported=-0.009
variantspec=V62A valuereported=-0.079
variantspec=T18P valuereported=-1.1
variantspec=I34T valuereported=-0.072
variantspec=I78K valuereported=-0.122
variantspec=S76L valuereported=-0.061
variantspec=G82W valuereported=-0.184
variantspec=L32V valuereported=0.052
variantspec=L45V valuereported=-0.232
variantspec=I49A valuereported=-0.173
variantspec=V63C valuereported=-0.192
variantspec=N53S valuereported=-0.022
